B1: COX4I1 (parent)
chain: VAHVKHLSASQKALKEKEKASWSS

Variants of: B1
method notes: protein stability index of a GFP-peptide fusion (GPS, HEK-293T) (PSI 1-6); higher = more stable;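 note: lentivirally expressed fusions sorted by FACS into six bins by GFP to DsRed ratio, PSI derived from sequencing read proportions per bin multiplied by bin number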
measurement conditions: c terminus: a fixed tail appended
# if value of protein stability index reaches 3, tag Yes; if it stays below, tag No

# var, cat
rows = [
    ("A13C", "Yes"),
    ("S24G", "Yes"),
    ("S24M", "Yes"),
    ("K5M", "No"),
    ("K19I", "Yes"),
    ("S10T", "No"),
]
